experiment_notes: Apparent permeability from apical to basolateral side in MDCK cells
Format: ADME, cell-based, Canis lupus familiaris
test_parameters: dog
Assign class by Papp: not lower than 10 ×10⁻⁶ cm/s means fulfilled; lower than 10 ×10⁻⁶ cm/s means not fulfilled.

Study these solved cases before continuing.
smiles_str: CNC(=O)c1c(O)c(NS(=O)(=O)c2cc(Br)ccc2O)cc(C2CC2)c1F
label_class: fulfilled
--
smiles_str: CS(=O)(=O)c1cc(Cl)cc(NS(=O)(=O)c2cc(Br)cc(Cl)c2O)c1
label_class: not fulfilled
--
smiles_str: CS(=O)(=O)c1cc(S(F)(F)(F)(F)F)cc(NS(=O)(=O)c2cc(Br)cc(Cl)c2O)c1O
label_class: fulfilled
--
smiles_str: CNC(=O)c1cc(C2(C#N)CCC2)cc(NS(=O)(=O)c2cc(Br)cc(Cl)c2O)c1O
label_class: fulfilled

Turning now to a further molecule:
Query string: Is Papp at least 10 ×10⁻⁶ cm/s? Consider O=S(=O)(Nc1cc(Cl)ccc1O)c1cc(Br)ccc1O
Result string: fulfilled

---

test_system: WD repeat-containing protein 5 (Homo sapiens, UniProt P61964)
experiment_notes: Binding affinity to N-terminal FLAG-tagged human full-length WDR5 […] assessed as change in melting temperature at 10 uM by differential scanning fluorimetry
property_name: ΔTm (°C)
Number in °C, nothing else.

// below: answered compounds
smiles_str: N#CC1(c2cc(NS(=O)(=O)c3ccc(Br)cc3O)c(O)c(C(=O)O)c2)CCC1
test_system: WD repeat-containing protein 5 (Homo sapiens, UniProt P61964)
units_label: °C
ΔTm: 0.42
//
smiles_str: N#CC1(c2cc(NS(=O)(=O)c3cc(Br)cc(Cl)c3O)c(O)c(C(=O)O)c2)CCC1
test_system: WD repeat-containing protein 5 (Homo sapiens, UniProt P61964)
units_label: °C
ΔTm: 6.68
//
smiles_str: N#CC1(c2cc(NS(=O)(=O)c3cc(Br)cc(Cl)c3O)c(O)c(C(=O)O)c2)CCCCC1
test_system: WD repeat-containing protein 5 (Homo sapiens, UniProt P61964)
units_label: °C
ΔTm: 6.38

We next turn to a different compound, shown below.
Query string: WD repeat-containing protein 5 (Homo sapiens, UniProt P61964) / ΔTm / O=C(O)c1cc(Cl)cc(NS(=O)(=O)c2cc(Br)ccc2O)c1O : value?
Result string: 4.05

---

test_system: WD repeat-containing protein 5 (Homo sapiens, UniProt P61964)
pKd: −log10 of the molar value.
Assign class by pKd: not lower than 7 means condition met; lower than 7 means condition not met.

Study these solved cases before continuing.
smiles_str: COc1ccc(Br)cc1S(=O)(=O)Nc1cc(Cl)cc(C(=O)O)c1O
label_class: condition not met
//
smiles_str: O=C(O)c1cc(S(F)(F)(F)(F)F)cc(NS(=O)(=O)c2cc(Br)cc3cccnc23)c1O
label_class: condition met
//
smiles_str: N#CC1(c2cc(NS(=O)(=O)c3cc(Br)ccc3O)c(O)c(C(=O)O)c2)CCCCC1
label_class: condition not met
//
smiles_str: O=C(O)c1c(O)c(NS(=O)(=O)c2cc(Br)cc(Cl)c2O)cc(C2CC2)c1F
label_class: condition met
//
smiles_str: CNC(=O)c1cc(S(F)(F)(F)(F)F)cc(NS(=O)(=O)c2cc(Br)cc(Cl)c2O)c1O
label_class: condition not met

Query string: Is pKd at least 7? Consider N#CC1(c2cc(NS(=O)(=O)c3cc(Br)cc(Cl)c3O)c(O)c(C(=O)O)c2)CCCCC1
Result string: condition met

Query string: Would you mind doing N#CC1(c2ccc(O)c(NS(=O)(=O)c3cc(Br)ccc3O)c2)CCC1 as well?
Result string: condition not met

Query string: Would you mind doing CS(=O)(=O)c1cc(S(F)(F)(F)(F)F)cc(NS(=O)(=O)c2cc(Br)cc(Cl)c2O)c1O as well?
Result string: condition met

Query string: Would you mind doing CNC(=O)c1cc(C2(C#N)CCC2)cc(NS(=O)(=O)c2cc(Br)ccc2O)c1O as well?
Result string: condition not met

Query string: Would you mind doing O=C(O)c1cc(S(F)(F)(F)(F)F)cc(NS(=O)(=O)c2cc(Br)ccc2O)c1O as well?
Result string: condition met

Query string: Would you mind doing CCOc1cc(S(=O)(=O)Nc2ccccc2C(=O)O)ccc1F as well?
Result string: condition not met

Query string: Would you mind doing N#CC1(c2cc(NS(=O)(=O)c3cc(Br)cc(Cl)c3O)c(O)c(C(=O)O)c2)CCC1 as well?
Result string: condition met

---

test_system: WD repeat-containing protein 5 (Homo sapiens)
Just a reminder that ties go to rule not met: only Kd strictly below 0.2 µM counts as rule met.

smiles_str: CS(=O)(=O)c1cc(NS(=O)(=O)c2cc(Br)ccc2O)cc(S(F)(F)(F)(F)F)c1
label_class: rule not met
//
smiles_str: CNC(=O)c1cc(Cl)cc(NS(=O)(=O)c2cc(Br)ccc2O)c1O
label_class: rule not met

Query string: Identify whether the molecule CS(=O)(=O)c1cc(C2(C#N)CCC2)cc(NS(=O)(=O)c2cc(Br)cc(Cl)c2O)c1O records Kd below 0.2 µM.
Result string: rule met

Query string: Would you mind doing CNC(=O)c1cc(NS(=O)(=O)c2cc(Br)ccc2O)cc(S(F)(F)(F)(F)F)c1 as well?
Result string: rule not met

Query string: Would you mind doing O=C(O)c1cc(Cl)cc(NS(=O)(=O)c2cc(Br)cc(Cl)c2O)c1O as well?
Result string: rule met

Query string: Would you mind doing O=S(=O)(Nc1cc(OC(F)(F)F)ccc1O)c1cc(Br)ccc1O as well?
Result string: rule not met

Query string: Would you mind doing O=C(O)c1cc(S(F)(F)(F)(F)F)cc(NS(=O)(=O)c2cc(Br)cc(Cl)c2O)c1O as well?
Result string: rule met

Query string: Would you mind doing CS(=O)(=O)c1cc(C2(C#N)CCC2)cc(NS(=O)(=O)c2cc(Br)ccc2O)c1O as well?
Result string: rule not met

Query string: Would you mind doing CS(=O)(=O)c1cc(Cl)cc(NS(=O)(=O)c2cc(Br)cc(Cl)c2O)c1 as well?
Result string: rule not met

Query string: Would you mind doing O=S(=O)(Nc1cc(S(F)(F)(F)(F)F)ccc1O)c1cc(Br)ccc1O as well?
Result string: rule met

---

Each entry below carries its recorded Papp.
experiment_notes: Apparent permeability from apical to basolateral side in MDCK cells
Format: ADME, cell-based, Canis lupus familiaris
test_parameters: dog
Please state the value followed by its unit.

// below: answered compounds
smiles_str: CS(=O)(=O)c1cc(Cl)cc(NS(=O)(=O)c2cc(Br)ccc2O)c1
property_name: Papp
observed: 4.79 ×10⁻⁶ cm/s

smiles_str: CNC(=O)c1cc(Cl)cc(NS(=O)(=O)c2cc(Br)ccc2O)c1O
property_name: Papp
observed: 16.7 ×10⁻⁶ cm/s

smiles_str: N#CC1(c2ccc(O)c(NS(=O)(=O)c3cc(Br)ccc3O)c2)CCC1
property_name: Papp
observed: 27.8 ×10⁻⁶ cm/s

Query string: Dear colleague, I am looking for the recorded Papp of the following compound: O=C(O)c1c(O)c(NS(=O)(=O)c2cc(Br)ccc2O)cc(C2CC2)c1F
Result string: 0.61 ×10⁻⁶ cm/s

Query string: Would you mind doing CS(=O)(=O)c1cc(NS(=O)(=O)c2cc(Br)ccc2O)cc(S(F)(F)(F)(F)F)c1 as well?
Result string: 16.1 ×10⁻⁶ cm/s

Query string: Would you mind doing O=S(=O)(Nc1cc(S(F)(F)(F)(F)F)ccc1O)c1cc(Br)ccc1O as well?
Result string: 14.7 ×10⁻⁶ cm/s

Query string: Would you mind doing N#CC1(c2cc(NS(=O)(=O)c3cc(Br)cc(Cl)c3O)c(O)c(C(=O)O)c2)CCC1 as well?
Result string: 0.33 ×10⁻⁶ cm/s

Query string: Would you mind doing CNC(=O)c1cc(C2(C#N)CCC2)cc(NS(=O)(=O)c2cc(Br)ccc2O)c1O as well?
Result string: 45.2 ×10⁻⁶ cm/s

---

Each entry below carries its recorded Kd.
test_system: UniProtKB P61964
Number in µM, nothing else.

// below: answered compounds
smiles_str: N#CC1(c2cc(NS(=O)(=O)c3cc(Br)cc4cccnc34)c(O)c(C(=O)O)c2)CCC1
test_system: UniProtKB P61964
Kd, µM: 0.104

smiles_str: O=C(O)c1cc(OC(F)(F)F)cc(NS(=O)(=O)c2cc(Br)ccc2O)c1O
test_system: UniProtKB P61964
Kd, µM: 0.137

Query string: Dear colleague, I am looking for the recorded Kd of the following compound: N#CC1(c2cc(NS(=O)(=O)c3cc(Br)ccc3O)c(O)c(C(=O)O)c2)CCC1
Result string: 0.067

---

test_system: WD repeat-containing protein 5 (Homo sapiens, UniProt P61964)
Note: every record was labeled by where its Kd sits among b0 = under 200 nM, b1 = from 200 nM up to 300 nM, b2 = 300 nM and over

Study these solved cases before continuing.
smiles_str: COc1ccc(Br)cc1S(=O)(=O)Nc1cc(C(C)(C)C)ccc1O
test_system: WD repeat-containing protein 5 (Homo sapiens, UniProt P61964)
label_class: b2

smiles_str: N#CC1(c2cc(NS(=O)(=O)c3cc(Br)ccc3O)cc(C(=O)O)c2)CCC1
test_system: WD repeat-containing protein 5 (Homo sapiens, UniProt P61964)
label_class: b1

smiles_str: CNC(=O)c1cc(C2(C#N)CCC2)cc(NS(=O)(=O)c2cc(Br)cc(Cl)c2O)c1O
test_system: WD repeat-containing protein 5 (Homo sapiens, UniProt P61964)
label_class: b0

smiles_str: COc1ccccc1S(=O)(=O)Nc1cc(Cl)ccc1O
test_system: WD repeat-containing protein 5 (Homo sapiens, UniProt P61964)
label_class: b2

smiles_str: N#CC1(c2ccc(O)c(NS(=O)(=O)c3cc(Br)ccc3O)c2)CC1
test_system: WD repeat-containing protein 5 (Homo sapiens, UniProt P61964)
label_class: b2

smiles_str: O=C(O)c1cc(NS(=O)(=O)c2cc(Br)ccc2O)cc(S(F)(F)(F)(F)F)c1
test_system: WD repeat-containing protein 5 (Homo sapiens, UniProt P61964)
label_class: b0

smiles_str: CS(=O)(=O)c1cc(Cl)cc(NS(=O)(=O)c2cc(Br)cc3cccnc23)c1O
test_system: WD repeat-containing protein 5 (Homo sapiens, UniProt P61964)
label_class: b2

smiles_str: O=S(=O)(Nc1cc(Cl)ccc1O)c1cc(Br)ccc1O
test_system: WD repeat-containing protein 5 (Homo sapiens, UniProt P61964)
label_class: b2

Query string: Please indicate the class for CNC(=O)c1cc(NS(=O)(=O)c2cc(Br)cc(Cl)c2O)cc(C2(C#N)CCC2)c1 based on its Kd.
Result string: b0

Query string: Would you mind doing O=C(O)c1cc(C2CC2)cc(NS(=O)(=O)c2cc(Br)ccc2O)c1O as well?
Result string: b0

Query string: Would you mind doing N#CC1(c2ccc(O)c(NS(=O)(=O)c3cc(Br)ccc3O)c2)CCCCC1 as well?
Result string: b1

Query string: Would you mind doing CNC(=O)c1cc(NS(=O)(=O)c2cc(Br)ccc2O)cc(C2(C#N)CCC2)c1 as well?
Result string: b2

Query string: Would you mind doing O=C(O)c1cc(C2CC2)cc(NS(=O)(=O)c2cc(Br)cc(Cl)c2O)c1O as well?
Result string: b1
